// values below are reported difference in %Control versus compound Ib at 1 µM
target: INSRR (Homo sapiens, UniProt P14616); construct: purchased Eurofins DiscoverX KINOMEscan (scanTK); assay: KINOMEscan ScanTK; format: binding; settings: @1000nM
Sequence (P14616 27-1297): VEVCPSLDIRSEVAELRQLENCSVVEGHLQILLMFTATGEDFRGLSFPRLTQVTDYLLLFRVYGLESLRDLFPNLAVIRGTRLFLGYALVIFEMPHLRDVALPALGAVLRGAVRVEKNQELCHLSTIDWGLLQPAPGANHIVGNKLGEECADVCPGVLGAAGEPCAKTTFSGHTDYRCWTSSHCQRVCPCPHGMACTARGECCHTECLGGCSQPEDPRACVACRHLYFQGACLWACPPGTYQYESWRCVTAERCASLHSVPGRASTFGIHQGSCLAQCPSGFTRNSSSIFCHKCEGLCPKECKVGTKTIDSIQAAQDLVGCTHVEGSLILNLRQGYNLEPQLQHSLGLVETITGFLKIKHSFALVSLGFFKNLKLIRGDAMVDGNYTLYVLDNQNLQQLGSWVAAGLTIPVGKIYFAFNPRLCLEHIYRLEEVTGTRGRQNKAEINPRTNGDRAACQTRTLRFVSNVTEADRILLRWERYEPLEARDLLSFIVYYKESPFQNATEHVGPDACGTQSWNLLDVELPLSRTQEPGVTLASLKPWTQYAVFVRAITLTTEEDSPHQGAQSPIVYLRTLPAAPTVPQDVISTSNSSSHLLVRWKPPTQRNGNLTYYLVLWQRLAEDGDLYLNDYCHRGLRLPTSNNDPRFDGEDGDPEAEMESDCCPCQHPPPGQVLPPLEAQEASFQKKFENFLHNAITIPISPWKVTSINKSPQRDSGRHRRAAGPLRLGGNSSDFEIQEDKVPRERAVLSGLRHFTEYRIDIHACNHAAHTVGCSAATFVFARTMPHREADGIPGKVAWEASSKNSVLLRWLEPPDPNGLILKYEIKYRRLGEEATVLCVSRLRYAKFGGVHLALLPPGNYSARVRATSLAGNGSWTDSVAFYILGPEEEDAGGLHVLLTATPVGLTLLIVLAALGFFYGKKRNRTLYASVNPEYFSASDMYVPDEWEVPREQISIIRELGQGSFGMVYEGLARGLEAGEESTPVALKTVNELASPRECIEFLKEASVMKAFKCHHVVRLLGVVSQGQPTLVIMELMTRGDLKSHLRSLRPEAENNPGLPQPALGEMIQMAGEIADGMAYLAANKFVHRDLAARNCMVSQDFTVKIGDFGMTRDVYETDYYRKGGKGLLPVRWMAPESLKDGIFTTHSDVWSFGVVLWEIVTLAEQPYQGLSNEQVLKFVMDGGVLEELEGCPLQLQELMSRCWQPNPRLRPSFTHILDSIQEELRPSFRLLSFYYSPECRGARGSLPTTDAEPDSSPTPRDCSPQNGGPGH
Reply with the number, then its unit.

Query: Entry CCOC(=O)c1cnc(S(C)(=O)=O)nc1N1CCC[C@@H](n2nc(-c3ccc(Oc4ccccc4)cc3)c3c(N)ncnc32)C1 needs its difference in %Control versus compound Ib at 1 µM filled in; supply it.
Result: -9%

----------
remaining binding at 1 µM reference
biological target: EGFR(L747-E749del, A750P) (Homo sapiens, UniProt P00533, A750P/DEL747-749); construct: purchased Eurofins DiscoverX KINOMEscan (scanTK); assay: KINOMEscan ScanTK; type: binding; conditions: @1000nM, read-out: %Control
Sequence (P00533 with tags, fused parts or gaps DEL747-749/A750P limits assumed): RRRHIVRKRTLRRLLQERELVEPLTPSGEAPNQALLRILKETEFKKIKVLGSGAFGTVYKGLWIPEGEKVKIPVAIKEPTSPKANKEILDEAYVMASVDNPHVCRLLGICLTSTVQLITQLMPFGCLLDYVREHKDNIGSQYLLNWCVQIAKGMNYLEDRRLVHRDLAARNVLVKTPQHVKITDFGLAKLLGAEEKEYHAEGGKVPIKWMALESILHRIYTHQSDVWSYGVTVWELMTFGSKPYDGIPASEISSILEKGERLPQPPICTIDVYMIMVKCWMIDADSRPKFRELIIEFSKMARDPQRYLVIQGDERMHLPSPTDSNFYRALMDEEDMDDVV
The response must be a number in % with no trailing unit.

Query: Please list remaining binding at 1 µM recorded for the compound COC(=O)c1cnc(S(C)(=O)=O)nc1N1CCCC(n2nc(-c3ccc(Oc4ccccc4)cc3)c3c(N)ncnc32)C1 (stereo not shown)
Result: 73

Query: Please supply the value of reported remaining binding at 1 µM for the item CNC(=O)c1cnc(S(C)(=O)=O)nc1N1CCCC(n2nc(-c3ccc(Oc4ccccc4)cc3)c3c(N)ncnc32)C1 (stereo not shown)
Result: 52

Query: Return remaining binding at 1 µM for the following compound: CCOC(=O)c1cnc(S(C)(=O)=O)nc1N1CCC[C@@H](n2nc(-c3ccc(Oc4ccccc4)cc3)c3c(N)ncnc32)C1
Result: 67

// next item, remaining binding at 1 µM requested
Query: Return remaining binding at 1 µM (reported value) for this compound: Cc1cnc(S(C)(=O)=O)nc1N1CCCC(n2nc(-c3ccc(Oc4ccccc4)cc3)c3c(N)ncnc32)C1 (stereo not shown)
Result: 83
